Data origin: paper PMC3676400

Molecular target: rSjOAR (Schistosoma japonicum, UniProt Q5DB51)
Sequence (Q5DB51 entry or part of it): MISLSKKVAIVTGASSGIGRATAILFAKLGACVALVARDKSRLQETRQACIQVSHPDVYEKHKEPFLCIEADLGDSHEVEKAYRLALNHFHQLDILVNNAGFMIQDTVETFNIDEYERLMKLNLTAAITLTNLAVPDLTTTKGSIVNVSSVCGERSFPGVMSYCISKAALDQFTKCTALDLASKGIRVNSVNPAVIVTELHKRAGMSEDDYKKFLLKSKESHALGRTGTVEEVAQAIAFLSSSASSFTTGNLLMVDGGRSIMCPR
experimental.endpoint: Kd (µM)

| test.smiles | measure.unit | recorded.number |
| --- | --- | --- |
| O=C(NC1CCN(CCc2c[nH]c3ccccc23)CC1)c1ccccc1 | µM | 12.1 |
